Source listed as ChEMBL document CHEMBL4706528.

- Target or test system: Androgen receptor (Homo sapiens) (UniProt P10275)
- Sequence (P10275 whole entry, the tested form may be a part): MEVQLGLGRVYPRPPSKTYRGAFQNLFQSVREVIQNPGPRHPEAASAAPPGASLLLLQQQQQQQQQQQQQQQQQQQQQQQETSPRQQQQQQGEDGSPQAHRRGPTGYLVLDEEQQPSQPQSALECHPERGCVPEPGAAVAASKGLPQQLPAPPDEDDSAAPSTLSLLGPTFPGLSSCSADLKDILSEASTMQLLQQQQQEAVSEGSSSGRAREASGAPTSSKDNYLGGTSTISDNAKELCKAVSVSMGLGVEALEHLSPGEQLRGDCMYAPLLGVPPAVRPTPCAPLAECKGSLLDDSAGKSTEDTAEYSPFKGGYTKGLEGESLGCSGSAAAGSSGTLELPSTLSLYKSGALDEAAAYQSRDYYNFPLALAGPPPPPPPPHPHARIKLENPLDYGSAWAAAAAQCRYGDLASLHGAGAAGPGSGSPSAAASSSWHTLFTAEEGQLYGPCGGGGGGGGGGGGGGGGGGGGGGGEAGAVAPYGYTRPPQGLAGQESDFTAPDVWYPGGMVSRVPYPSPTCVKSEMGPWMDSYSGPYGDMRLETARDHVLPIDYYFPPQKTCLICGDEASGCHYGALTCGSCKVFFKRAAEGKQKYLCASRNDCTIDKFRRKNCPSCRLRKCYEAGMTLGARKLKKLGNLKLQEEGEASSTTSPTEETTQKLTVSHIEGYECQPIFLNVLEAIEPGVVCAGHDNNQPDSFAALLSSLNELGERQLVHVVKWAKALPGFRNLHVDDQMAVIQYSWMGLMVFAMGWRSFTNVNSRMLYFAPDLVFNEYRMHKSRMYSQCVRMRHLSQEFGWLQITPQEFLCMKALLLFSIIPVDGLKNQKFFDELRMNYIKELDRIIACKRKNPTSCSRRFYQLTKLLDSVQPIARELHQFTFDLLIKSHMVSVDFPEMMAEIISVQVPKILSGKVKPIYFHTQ
- Assay details: Binding affinity to androgen receptor LBD (unknown origin) at 10 uM incubated for 4 hrs under dark by fluorescence polarization based binding assay relative to R1881
Endpoint: Activity (%)

(A) CC1(C)C(=O)N(c2ccc(C#N)c(C(F)(F)F)c2)C(=S)N1CCCn1cc(COCCOCCOC(=O)CC23CC4CC(CC(C4)C2)C3)nn1
(B) CC1(C)C(=O)N(c2ccc(C#N)c(C(F)(F)F)c2)C(=O)N1Cc1ccc(OCCOCCOC(=O)CC23CC4CC(CC(C4)C2)C3)cc1
Of A and B , whose reported Activity is the larger number? Kindly give the label for the entry you pick.
A
(A: 74.6%, B: 26.3%)

(1) CC1(C)C(=O)N(c2ccc(C#N)c(C(F)(F)F)c2)C(=S)N1CCCn1cc(COCCOCCOCCOCCOC(=O)CC23CC4CC(CC(C4)C2)C3)nn1
(2) CC1(C)C(=O)N(c2ccc(C#N)c(C(F)(F)F)c2)C(=O)N1CCCn1cc(COCCOCCOC(=O)CC23CC4CC(CC(C4)C2)C3)nn1
Just tell me: smaller Activity value, 1 or 2 ? Your choice should be expressed through its label.
2
(2: 41.9%, 1: 69.3%)

(I) CC1(C)C(=O)N(c2ccc(C#N)c(C(F)(F)F)c2)C(=O)N1Cc1cn(CCOCCOCCOCCOC(=O)CC23CC4CC(CC(C4)C2)C3)nn1
(II) CC1(C)C(=O)N(c2ccc(C#N)c(C(F)(F)F)c2)C(=S)N1CCCCCn1cc(COCCOCCOC(=O)CC23CC4CC(CC(C4)C2)C3)nn1
Please tell me which of the two, I or II , has the higher reported Activity value. Could you answer with the label of the item you picked?
II
(II: 85.3%, I: 29.8%)

(I) CC1(C)C(=O)N(c2ccc(C#N)c(C(F)(F)F)c2)C(=S)N1Cc1ccc(-n2cc(COCCOCCOC(=O)CC34CC5CC(CC(C5)C3)C4)nn2)cc1
(II) CC1(C)C(=O)N(c2ccc(C#N)c(C(F)(F)F)c2)C(=O)N1Cc1ccc(-n2cc(COCCOCCOCCOCCOC(=O)CC34CC5CC(CC(C5)C3)C4)nn2)cc1
(III) CC1(C)C(=O)N(c2ccc(C#N)c(C(F)(F)F)c2)C(=O)N1Cc1ccc(-n2cc(COCCCOC(=O)CC34CC5CC(CC(C5)C3)C4)nn2)cc1
Sort the 3 molecules by Activity; largest first, smallest last. Sort and list the labels as requested.
II, I, III
(II: 51.8%, I: 35.8%, III: 19.1%)

(P) CC1(C)C(=O)N(c2ccc(C#N)c(C(F)(F)F)c2)C(=O)N1Cc1cn(CCOCCOCCOC(=O)CC23CC4CC(CC(C4)C2)C3)nn1
(Q) CC1(C)C(=O)N(c2ccc(C#N)c(C(F)(F)F)c2)C(=S)N1Cc1ccc(-n2cc(COCCOCCOCCOC(=O)CC34CC5CC(CC(C5)C3)C4)nn2)cc1
Given P and given Q , which shows the smaller recorded Activity? Mark your selection by writing its label.
Q
(Q: 25.3%, P: 46.7%)
